// classify: if (log10 Koc (L/kg) < 2) y else n

• CCCCCCCC(=O)OCC = n
• C#CC(C)(C)NC(=O)c1ccc(C)cc1 = y
• Oc1c(Cl)cc(Cl)c(Cl)c1Cl = n
• c1ccc(Nc2ccccc2)cc1 = n

Could you please tell me whether log10 Koc (L/kg) recorded for `Cc1ccn2nc(S(=O)(=O)Nc3c(F)cccc3F)nc2n1` is less than 2? y

Dear colleague, could you confirm whether log10 Koc (L/kg) of `C#CC(C)(C)NC(=O)c1ccccc1` falls below 2? Thanks. y

Determine whether this molecule shows log10 Koc (L/kg) lower than 2 (ties excluded): `O=C(O)c1cc([N+](=O)[O-])ccc1[N+](=O)[O-]` n
